The reported measurements were obtained from patent US12492194B2.

Here, each record is paired with measured IC50 data.
# Measured Target: Hpk1 (Homo sapiens)
# Sequence (Q92918 whole entry, the tested form may be a part): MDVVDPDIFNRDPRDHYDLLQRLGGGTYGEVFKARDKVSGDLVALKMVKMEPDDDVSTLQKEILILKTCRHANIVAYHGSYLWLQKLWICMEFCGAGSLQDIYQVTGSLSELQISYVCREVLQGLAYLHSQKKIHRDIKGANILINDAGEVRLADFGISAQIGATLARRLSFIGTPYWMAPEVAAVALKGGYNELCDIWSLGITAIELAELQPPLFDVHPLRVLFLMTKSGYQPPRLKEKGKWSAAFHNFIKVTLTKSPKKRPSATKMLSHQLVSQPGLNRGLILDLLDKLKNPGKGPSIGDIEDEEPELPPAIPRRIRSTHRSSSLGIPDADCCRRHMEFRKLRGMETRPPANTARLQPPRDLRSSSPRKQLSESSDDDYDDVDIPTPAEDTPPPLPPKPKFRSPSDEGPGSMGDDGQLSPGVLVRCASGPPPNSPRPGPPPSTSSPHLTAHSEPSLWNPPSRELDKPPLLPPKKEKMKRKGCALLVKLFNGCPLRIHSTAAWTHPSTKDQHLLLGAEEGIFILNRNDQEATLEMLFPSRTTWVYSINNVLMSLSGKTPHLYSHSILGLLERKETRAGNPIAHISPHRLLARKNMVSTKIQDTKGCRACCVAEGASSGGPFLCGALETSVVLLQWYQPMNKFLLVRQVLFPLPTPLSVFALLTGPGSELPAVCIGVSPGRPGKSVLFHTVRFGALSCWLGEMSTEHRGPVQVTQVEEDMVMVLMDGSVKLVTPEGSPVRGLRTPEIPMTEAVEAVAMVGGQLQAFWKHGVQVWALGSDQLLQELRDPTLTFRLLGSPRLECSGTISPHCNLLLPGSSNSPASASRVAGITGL
# Test Summary: SLP76 phosphorylation assay (SLP76 pS376 in lysates of HEK293 cells engineered to express Hpk1 and SLP76)
# Assay type: cell-based
# Condition Label: HEK293 cells expressing Hpk1 and SLP76, 4 hours incubation; read-out: pSLP76 (HEK293) (pIC50) (converted)
Value Type: IC50 (nM)

# Compound, Value Type, Limit Sign, Recorded Measurement
data = [
    ("Nc1ncc(-c2ccc(C3CCOCC3)c([C@@H]3C[S@@+]([O-])CCN3)c2)cc1-c1ccnc(F)c1 (single isomer, unassigned) [Co. 15c]", "IC50", ">", 10000),
    ("Nc1ncc(-c2ccc(C3CCOCC3)c([C@@H]3CCCN3)c2)cc1-c1ccnc(F)c1", "IC50", "=", 380),
    ("Nc1ncc(-c2ccc(N3CCOCC3)c(-c3nnc[nH]3)c2)cc1-c1ccncc1", "IC50", ">", 10000),
    ("Nc1ncc(-c2ccc(C3CCSCC3)c([C@@H]3CCCN3)c2)cc1-c1ccnc(F)c1", "IC50", "=", 646),
]

---

# Measured Target: full-length human Hpk1 (Homo sapiens)
# Construct: A recombinant fusion protein consisting of full-length human Hpk1; GST (N)
# Test Summary: HPK1 kinase assay (ADP Glo Kinase Assay)
# Format: biochemical
# Condition Label: full-length human GST-Hpk1, ADP Glo, 75 μM ATP; read-out: Hpk1 biochemical (pIC50) (converted)

# Compound, IC50
records = [
    ("Nc1ncc(-c2ccc(C3CCOCC3)c([C@@H]3CCCN3)c2)cc1Br", "7.24 nM"),
    ("Nc1ncc(-c2ccc(C3CCOCC3)c([C@@H]3CCCN3)c2)cc1-c1ccnc(C(F)(F)F)c1", "58.9 nM"),
    ("Nc1ncc(-c2ccc(C3CCOCC3)c([C@@H]3CC4(CC4)CN3)c2)cc1-c1ccnc(F)c1 (single isomer, unassigned)", "10.2 nM"),
    ("Nc1ncc(-c2ccc(C3CCOCC3)c([C@@H]3CCCN3)c2)nc1C(F)(F)F", "15.8 nM"),
]

---

# Measured Target: full-length human Hpk1 (Homo sapiens, UniProt Q92918)
# Construct: A recombinant fusion protein consisting of full-length human Hpk1; GST (N)
# Test Summary: HPK1 kinase assay (ADP Glo Kinase Assay)
# Type: biochemical
# Condition Label: full-length human GST-Hpk1, ADP Glo, 75 μM ATP; read-out: Hpk1 biochemical (pIC50) (converted)
Here, each record is paired with measured IC50 data.
Value Type: IC50 (nM)

# Compound, Recorded Measurement
data = [
    ("CN(C)Cc1cc(-c2cnc(N)c(-c3ccccc3)c2)ccc1C1CCOCC1", 34.7),
    ("C[C@H]1CN[C@H](c2cc(-c3cnc(N)c(Br)c3)ccc2C2CCOCC2)CO1", 25.7),
    ("Nc1ncc(-c2ccc(C3CCOCC3)c([C@H]3CC4(CC4)CN3)c2)cc1-c1ccnc(F)c1 (single isomer, unassigned)", 912),
    ("CN(C)Cc1cc(-c2cnc(N)c(-c3ccncc3)c2)ccc1C1CCOCC1", 42.7),
    ("Cc1cnccc1-c1cc(-c2ccc(C3CCOCC3)c(CN(C)C)c2)cnc1N", 316),
    ("Nc1ncc(-c2ccc(C3CCOCC3)c([C@@H]3COCCCN3)c2)cc1-c1ccncc1 (single isomer, unassigned) [Co. 93a]", 162),
    ("Nc1ncc(-c2ccc(C3CC4(COC4)C3)c([C@@H]3CCCN3)c2)cc1-c1ccnc(F)c1", 38.9),
    ("Nc1ncc(-c2ccc(C3CCC(F)(F)CC3)c([C@@H]3CCCN3)c2)cc1-c1ccnc(F)c1", 20),
    ("Nc1ncc(-c2ccc(C3=CCS(=O)(=O)CC3)c([C@@H]3CCCN3)c2)cc1-c1ccnc(F)c1", 24),
    ("Nc1ncc(-c2ccc(C3CCS(=O)(=O)CC3)c([C@@H]3CCCN3)c2)cc1-c1ccnc(F)c1", 19.5),
    ("Cn1cc(-c2nc(-c3ccc(C4CCOCC4)c([C@@H]4COCCN4)c3)cnc2N)cn1", 25.1),
    ("Nc1ncc(-c2ccc(C3CCOCC3)c([C@H]3C[S@+]([O-])CCN3)c2)cc1-c1ccnc(F)c1 (single isomer, unassigned) [Co. 15d]", 6920),
    ("Nc1ncc(-c2ccc(C3CCOCC3)c([C@@H]3CCCN3)c2)cc1C1=CCS(=O)(=O)CC1", 95.5),
    ("Cn1cc(-c2cc(-c3ccc(C4CCOCC4)c([C@@H]4CCCN4)c3)cnc2N)cn1", 6.31),
    ("N#Cc1cc(-c2ccc(C3CCOCC3)c([C@@H]3COCCN3)c2)cnc1N", 21.4),
    ("Nc1ncc(-c2ccc(C3CCOCC3)c([C@H]3CCCN3)c2)cc1-c1ccncc1 [Co. 25b]", 955),
]

---

# Measured Target: Hpk1 (Homo sapiens)
# Test Summary: SLP76 phosphorylation assay (SLP76 pS376 in lysates of HEK293 cells engineered to express Hpk1 and SLP76)
# Assay type: cell-based
# Condition Label: HEK293 cells expressing Hpk1 and SLP76, 4 hours incubation; read-out: pSLP76 (HEK293) (pIC50) (converted)
Hi! Could you tag entries with IC50 below 2000 nM as class 1, and those at or above as class 0? Much appreciated.

# Compound, Class Name
rows = [
    ("Nc1ncc(-c2ccc(C3CCOCC3)c([C@@H]3CCCN3)c2)cc1-c1nccs1", "class 1"),
    ("Cn1cc(-c2cc(-c3ccc(C4CCOCC4)c([C@@H]4CCCN4)c3)cnc2N)cn1", "class 1"),
    ("Nc1ncc(-c2ccc(C3CCOCC3)c(CNC3COC3)c2)cc1-c1ccnc(F)c1", "class 0"),
    ("Nc1ncc(-c2ccc(C3CCOCC3)c([C@@H]3CCCN3)c2)cc1-c1ccnc(C(F)F)c1", "class 1"),
    ("Nc1ncc(-c2ccc(C3CCOCC3)c([C@@H]3CC(F)(F)CN3)c2)cc1-c1ccnc(F)c1 (single isomer, unassigned)", "class 0"),
    ("Nc1ncc(-c2ccc(C3CCOCC3)c([C@@H]3COCCN3)c2)cc1F", "class 0"),
    ("Nc1ncc(-c2ccc([C@H]3CCOC3)c([C@@H]3CCCN3)c2)cc1-c1ccnc(F)c1 (single isomer, unassigned)", "class 1"),
    ("Nc1ncc(-c2ccc(C3CCOCC3)c([C@H]3COCCCN3)c2)cc1-c1ccncc1 (single isomer, unassigned) [Co. 93b]", "class 1"),
    ("C[C@H]1COC[C@@H](c2cc(-c3cnc(N)c(-c4ccncc4)c3)ccc2C2CCOCC2)N1 (single isomer, unassigned) [Co. 83a]", "class 1"),
    ("C[C@H]1CN[C@H](c2cc(-c3cnc(N)c(-c4cnn(C)c4)n3)ccc2C2CCOCC2)CO1", "class 1"),
    ("CN(C)Cc1cc(-c2cnc(N)c(-c3ccnc(NCCCO)c3)c2)ccc1C1CCOCC1", "class 0"),
    ("[2H]c1cc(-c2cc(-c3ccc(C4CCOCC4)c([C@@H]4CCCN4)c3)cnc2N)ccn1", "class 1"),
    ("CC(C)(C#N)c1cc(-c2cc(-c3ccc(C4CCOCC4)c([C@@H]4CCCN4)c3)cnc2N)ccn1", "class 0"),
    ("Nc1ncc(-c2ccc(C3CCOCC3)c([C@@H]3CN4CCCC[C@H]4CN3)c2)cc1Br", "class 0"),
    ("Cc1cc(-c2cc(-c3ccc(C4CCOCC4)c(CN(C)C)c3)cnc2N)ccn1", "class 0"),
    ("COc1cc(-c2ccc(C3CCOCC3)c([C@@H]3COCCN3)c2)cnc1N", "class 1"),
    ("Nc1ncc(-c2ccc(C3CCOCC3)c([C@@H]3CCCN3)c2)cc1-c1cnn(CCO)c1", "class 0"),
    ("Nc1ncc(-c2ccc(C3CCOCC3)c([C@@H]3CCCN3)c2)nc1-c1ccnc(F)c1", "class 0"),
    ("C[C@@H]1CN[C@@H](c2cc(-c3cnc(N)c(-c4ccnc(F)c4)c3)ccc2C2CCOCC2)CO1", "class 0"),
    ("Nc1ncc(-c2ccc(C3=CCSCC3)c([C@@H]3CCCN3)c2)cc1-c1ccnc(F)c1", "class 1"),
    ("CN(C)Cc1cc(-c2cnc(N)c(-c3ccncc3)c2)ccc1C1CCOCC1", "class 1"),
    ("Nc1ncc(-c2ccc(C3CCOCC3)c([C@@H]3CCCN3)c2)cc1-c1ccc(F)cc1", "class 1"),
    ("CC(=O)N1CC=C(c2ccc(-c3cnc(N)c(-c4ccnc(F)c4)c3)cc2[C@@H]2CCCN2)CC1", "class 1"),
    ("Nc1ncc(-c2ccc(C3CCOCC3)c(-c3cnc[nH]3)c2)cc1-c1ccncc1", "class 0"),
    ("Nc1ncc(-c2ccc(C3CCOCC3)c([C@@H]3CCCN3)c2)cc1C1=CCS(=O)(=O)CC1", "class 0"),
    ("Nc1ncc(-c2cnc(N3CCOCC3)c(C3CCCN3)c2)cc1-c1ccncc1 (centres unmarked)", "class 0"),
    ("Nc1ncc(-c2ccc(C3CCOCC3)c(-c3cnn[nH]3)c2)cc1-c1ccncc1", "class 0"),
    ("Nc1ncc(-c2ccc(C3CCOCC3)c([C@@H]3CCCN3)c2)nc1C(F)(F)F", "class 1"),
    ("Nc1ncc(-c2ccc(C3CCOCC3)c([C@@H]3CCCN3)c2)cc1-c1ccnc(C(F)(F)F)c1", "class 0"),
    ("Nc1ncc(-c2ccc(C3CCOCC3)c([C@@H]3CCCN3)c2)cc1C1CCOCC1", "class 0"),
]
